Test system: SW-620 colon
Experiment: NCI tumour cell line growth inhibition, 48 h
readout_label: TGI

Consider the following illustrative entries.
# compound, result
measured = [
    ("CNCCNc1nc2ccccc2c2c(=O)c3cc(OC)ccc3sc12", "2.91 µM"),
    ("COC(=O)[C@](C)(Cc1ccccc1)NC(=O)[C@@H](C)N1[C@@H](c2ccccc2)COC1(C)C", "> 100 µM"),
    ("COc1ccc(OC)c(C[P+](c2ccccc2)(c2ccccc2)c2ccccc2)c1", "> 100 µM"),
]

Qu. Which TGI value is on record for Clc1ccc(-c2c(C3=NCCN3)nnn2-c2ccccc2)cc1 ?
Ans. > 100 µM

Qu. Which TGI value is on record for O=C(Nc1ccc(Br)cc1)Nc1nn(C(=O)Nc2ccc(Br)cc2)c2ccccc12 ?
Ans. > 100 µM

Qu. Which TGI value is on record for Cn1cc(C2=C(c3cn(C)c4cc(N)ccc34)C(=O)NC2=O)c2ccccc21 ?
Ans. > 25 µM

Qu. Which TGI value is on record for COC(=O)[C@H]1[C@H]2C[C@@H]3c4[nH]c5cc(OC)ccc5c4CCN3C[C@H]2C[C@@H](OC(=O)/C=C/c2cc(OC)c(OC)c(OC)c2)[C@@H]1OC ?
Ans. > 100 µM
